Target: Tyrosine-protein kinase Lck (Homo sapiens)
Assay: Inhibition of LCK (unknown origin) assessed as remaining activity at 1 x 10^-5 M after 120 mins in presence of 33P-ATP (reference value: […]% to […]%)
Conditions: at 10 µM
measurement-type: Activity

Sample COc1cc(C)ccc1Oc1nc(Nc2ccc(N3CCOCC3)cc2)ncc1NC(=O)Nc1c(Cl)cccc1Cl — what was its Activity?
58.3 to 62.7%

Quick check: Activity of COc1cc(C)ccc1Oc1nc(Nc2ccc(N3CCOCC3)cc2)ncc1/N=C/c1cccc(OC(C)C)c1 ?
19.8 to 20.8%

Using the record for COc1cc(C)ccc1Oc1nc(Nc2ccc(N3CCOCC3)cc2)ncc1NCc1cc(C(F)(F)F)cc(C(F)(F)F)c1 , report its Activity.
55.1 to 58.1%

Consider the compound shown here: COc1ccccc1NC(=O)Nc1cnc(Nc2ccc(N3CCOCC3)cc2)nc1Oc1ccc(C)cc1OC What is its recorded Activity?
33.8 to 33.9%

----------
Kindly state Activity for each of the entries shown.
Target: Tyrosine-protein kinase Lck (Homo sapiens, UniProt P06239)
Sequence (P06239 2-509 limits assumed): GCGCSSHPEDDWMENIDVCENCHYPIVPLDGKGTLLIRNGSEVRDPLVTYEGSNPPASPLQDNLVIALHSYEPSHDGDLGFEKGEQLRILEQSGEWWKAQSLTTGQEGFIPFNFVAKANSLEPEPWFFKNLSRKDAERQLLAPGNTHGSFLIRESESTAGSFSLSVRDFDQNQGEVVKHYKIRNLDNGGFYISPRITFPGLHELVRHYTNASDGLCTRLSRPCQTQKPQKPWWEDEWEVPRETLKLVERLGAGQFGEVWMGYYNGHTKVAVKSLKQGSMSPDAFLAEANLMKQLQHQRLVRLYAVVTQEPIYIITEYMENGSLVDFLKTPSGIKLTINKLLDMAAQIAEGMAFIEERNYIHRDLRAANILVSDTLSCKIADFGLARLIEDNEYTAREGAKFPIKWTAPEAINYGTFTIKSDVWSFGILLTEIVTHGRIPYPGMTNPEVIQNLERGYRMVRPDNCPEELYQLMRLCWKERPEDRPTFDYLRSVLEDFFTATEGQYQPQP
Test: Inhibition of LCK (unknown origin) assessed as remaining activity at 3.7 x 10^-7 M after 120 mins in presence of 33P-ATP (reference value: […]% to […]%)
Details: at 0.37 µM

What measured Activity goes with COc1cc(NC(=O)Nc2cnc(Nc3ccc(N4CCOCC4)cc3)nc2Oc2ccc(C(F)(F)F)cc2)cc(OC)c1 ?
96 to 100%

Consider the compound COc1cc(C)ccc1Oc1nc(Nc2ccc(N3CCOCC3)cc2)ncc1/N=C/c1cccc(OC(C)C)c1 and give its measured Activity.
37.5 to 37.9%

I would be grateful if you could share the reported Activity for COc1cc(C)ccc1Oc1nc(Nc2ccc(N3CCOCC3)cc2)ncc1/N=C/c1ccccc1Cl .
42.5 to 42.8%

Consider the compound COc1cc(C)ccc1Oc1nc(Nc2ccc(N3CCOCC3)cc2)ncc1NCc1ccc(OC(F)(F)F)cc1 and give its measured Activity.
84.9 to 85.4%

Recorded Activity of COc1cc(C)ccc1Oc1nc(Nc2ccc(N3CCOCC3)cc2)ncc1NCc1cc(C(F)(F)F)cc(C(F)(F)F)c1 , please.
104%

Quick check: Activity of COc1cc(Nc2ncc(NC(=O)Nc3c(Cl)cccc3Cl)c(Oc3ccc(C)cc3OC)n2)cc(OC)c1 ?
93.7 to 96%

# query: Activity of entry COc1ccc(Oc2nc(Nc3ccc(N4CCOCC4)cc3)ncc2/N=C/c2cc(OC)cc(OC)c2)cc1
53.2%

// query Activity value for entry COc1cc(C)ccc1Oc1nc(Nc2ccc(N3CCOCC3)cc2)ncc1/N=C/c1cc(Cl)cc(Cl)c1
35.8 to 36.1%

Fill in: Activity of COc1cc(/C=N/c2cnc(Nc3ccc(N4CCOCC4)cc3)nc2Oc2ccc(C(F)(F)F)cc2)cc(OC)c1 is ___
83.1 to 91.7%

Recorded Activity of COc1ccc(OC)c(/C=N/c2cnc(Nc3ccc(N4CCOCC4)cc3)nc2Oc2ccc(C)cc2OC)c1 , please.
38.7 to 38.9%

Bench note: what Activity did COc1cc(C)ccc1Oc1nc(Nc2ccc(N3CCOCC3)cc2)ncc1NC(=O)Nc1cc(Cl)cc(Cl)c1 show?
98.6 to 101%

Name the recorded Activity for COc1cc(NC(=O)Nc2cnc(Nc3ccc(N4CCOCC4)cc3)nc2Oc2cccc(OC)c2)cc(OC)c1 .
78.7 to 86.2%

Would you kindly share the measured Activity for COc1ccccc1NC(=O)Nc1cnc(Nc2ccc(N3CCOCC3)cc2)nc1Oc1ccc(C)cc1OC ?
97.2 to 97.4%

What value of Activity has been recorded for this entry: COc1cc(OC)cc(C(=O)Nc2cnc(Nc3ccc(N4CCOCC4)cc3)nc2Oc2ccc(C)cc2OC)c1
99.1 to 99.3%

I'd like to know its Activity. The compound in question is COc1cc(C)ccc1Oc1nc(Nc2ccc(N3CCOCC3)cc2)ncc1/N=C/c1ccc(Cl)cc1
38.2%

Data request, read-out Activity, for COc1cc(C)ccc1Oc1nc(Nc2ccc(N3CCOCC3)cc2)ncc1NCc1ccc(Cl)cc1
43.1 to 46.1%

# input compound: COc1cc(Nc2ncc(NC(=O)c3cc(OC)cc(OC)c3)c(Oc3ccc(C)cc3OC)n2)cc(OC)c1 ; wanted: its Activity
98.3 to 103%

Dear colleague, I am looking for the recorded Activity of the following compound: COc1cc(C)ccc1Oc1nc(Nc2ccc(N3CCOCC3)cc2)ncc1/N=C/c1cccc(OC(F)(F)F)c1
39.2 to 39.8%

// query Activity value for entry COc1ccc(NC(=O)Nc2cnc(Nc3cc(OC)cc(OC)c3)nc2Oc2ccc(C)cc2OC)cc1
96.3 to 102%

Requested field: Activity. Item: COc1cc(/C=N/c2cnc(Nc3ccc(N4CCOCC4)cc3)nc2Oc2ccc(F)cc2)cc(OC)c1
76.7 to 83.1%

Recorded Activity for COc1cc(NC(=O)Nc2cnc(Nc3ccc(N4CCOCC4)cc3)nc2Oc2ccc(F)cc2)cc(OC)c1 , please?
83.2 to 90.3%

Sample COc1cc(/C=N/c2cnc(Nc3ccc(N4CCOCC4)cc3)nc2Oc2cccc(OC)c2)cc(OC)c1 — what was its Activity?
74.3 to 74.7%

Bench note: what Activity did COc1cc(NC(=O)Nc2cnc(Nc3cc(OC)cc(OC)c3)nc2Oc2ccc(C)cc2OC)cc(OC)c1 show?
103 to 108%

Dear colleague, I am looking for the recorded Activity of the following compound: COc1cc(C)ccc1Oc1nc(Nc2ccc(N3CCOCC3)cc2)ncc1NC(=O)Nc1cc(C(F)(F)F)cc(C(F)(F)F)c1
95.3 to 99.2%

Find the recorded Activity belonging to COc1cc(C)ccc1Oc1nc(Nc2ccc(N3CCOCC3)cc2)ncc1NC(=O)Nc1c(Cl)cccc1Cl and report it.
93.2 to 97.7%

Given the compound COc1cc(C)ccc1Oc1nc(Nc2ccc(N3CCOCC3)cc2)ncc1NCc1cccc(OC(F)(F)F)c1 , what is its reported Activity?
92.7 to 92.9%

Entry under review: COc1cc(C)ccc1Oc1nc(Nc2ccc(N3CCOCC3)cc2)ncc1/N=C/c1cc(C(F)(F)F)cc(C(F)(F)F)c1 . Reported Activity?
39.7 to 40.7%

What value of Activity has been reported for the following compound? COc1cc(C)ccc1Oc1nc(Nc2ccc(N3CCOCC3)cc2)ncc1/N=C/c1cccc(Cl)c1
32.6 to 35.6%

Name the reported Activity value associated with the compound COc1cc(/C=N/c2cnc(Nc3ccc(N4CCOCC4)cc3)nc2Oc2ccc(C)cc2OC)cc(OC)c1
28.8 to 37.5%

----------
measurement-type: pIC50
Value format note: pIC50 is -log10 of concentration (mol/L); just state the number.

Request body: readout pIC50, system Homeodomain-interacting protein kinase 1 (Homo sapiens), query Cn1cc(C2=C(c3cn(CCCSC(=N)N)c4ccccc34)C(=O)NC2=O)c2ccccc21 . Return the value.
9.44

----------
Biological target: Tyrosine-protein kinase Lck (Homo sapiens)
Assay: Inhibition of LCK (unknown origin) assessed as remaining activity at […] x 10^-6 M after 120 mins in presence of 33P-ATP (reference value: […]% to […]%)
So I've got a bunch of compounds here, and I need their Activity values.

Form entry - test system: Tyrosine-protein kinase Lck (Homo sapiens); read-out: Activity; compound: COc1cc(NC(=O)Nc2cnc(Nc3ccc(N4CCOCC4)cc3)nc2Oc2ccc(C(F)(F)F)cc2)cc(OC)c1
89.3 to 89.9%

For the record COc1cc(C)ccc1Oc1nc(Nc2ccc(N3CCOCC3)cc2)ncc1NC(=O)Nc1cc(C(F)(F)F)cc(C(F)(F)F)c1 , what value of Activity is listed for Tyrosine-protein kinase Lck (Homo sapiens)?
96 to 98%

Notebook: pull reported Activity for Tyrosine-protein kinase Lck (Homo sapiens), entry COc1cc(C)ccc1Oc1nc(Nc2ccc(N3CCOCC3)cc2)ncc1NCc1ccc(OC(F)(F)F)cc1
59.5 to 61.6%

Notebook: pull reported Activity for Tyrosine-protein kinase Lck (Homo sapiens), entry COc1cc(OC)cc(C(=O)Nc2cnc(Nc3ccc(N4CCOCC4)cc3)nc2Oc2ccc(C)cc2OC)c1
86.7 to 89%

Form: Entry = COc1cc(C)ccc1Oc1nc(Nc2ccc(N3CCOCC3)cc2)ncc1/N=C/c1cccc(OC(F)(F)F)c1 | System = Tyrosine-protein kinase Lck (Homo sapiens) | Activity = ____
26.8 to 27.9%

Missing value: Activity, Tyrosine-protein kinase Lck (Homo sapiens), entry COc1cc(C)ccc1Oc1nc(Nc2ccc(N3CCOCC3)cc2)ncc1NCc1cc(C(F)(F)F)cc(C(F)(F)F)c1 . Fill in?
88.1 to 91.2%

# get_value(readout= Activity, system= Tyrosine-protein kinase Lck (Homo sapiens)) for COc1cc(C)ccc1Oc1nc(Nc2ccc(N3CCOCC3)cc2)ncc1/N=C/c1cc(Cl)cc(Cl)c1
26.7 to 26.9%

Recall the recorded Activity for COc1ccc(Oc2nc(Nc3ccc(N4CCOCC4)cc3)ncc2/N=C/c2cc(OC)cc(OC)c2)cc1 with Tyrosine-protein kinase Lck (Homo sapiens) and state it.
37.8 to 39.9%

# query: Activity | item COc1cc(Nc2ncc(NC(=O)Nc3c(Cl)cccc3Cl)c(Oc3ccc(C)cc3OC)n2)cc(OC)c1 | system: Tyrosine-protein kinase Lck (Homo sapiens)
94 to 95.5%

Recall the recorded Activity for COc1cc(C)ccc1Oc1nc(Nc2ccc(N3CCOCC3)cc2)ncc1/N=C/c1ccc(Cl)cc1 with Tyrosine-protein kinase Lck (Homo sapiens) and state it.
19.1%

Please provide the recorded Activity for COc1cc(C)ccc1Oc1nc(Nc2ccc(N3CCOCC3)cc2)ncc1/N=C/c1cccc(Cl)c1 , tested on Tyrosine-protein kinase Lck (Homo sapiens).
19.6 to 23.2%
